Reference source for all entries: ChEMBL document CHEMBL1139972

Molecular target: UniProtKB P19793
Sequence (whole entry): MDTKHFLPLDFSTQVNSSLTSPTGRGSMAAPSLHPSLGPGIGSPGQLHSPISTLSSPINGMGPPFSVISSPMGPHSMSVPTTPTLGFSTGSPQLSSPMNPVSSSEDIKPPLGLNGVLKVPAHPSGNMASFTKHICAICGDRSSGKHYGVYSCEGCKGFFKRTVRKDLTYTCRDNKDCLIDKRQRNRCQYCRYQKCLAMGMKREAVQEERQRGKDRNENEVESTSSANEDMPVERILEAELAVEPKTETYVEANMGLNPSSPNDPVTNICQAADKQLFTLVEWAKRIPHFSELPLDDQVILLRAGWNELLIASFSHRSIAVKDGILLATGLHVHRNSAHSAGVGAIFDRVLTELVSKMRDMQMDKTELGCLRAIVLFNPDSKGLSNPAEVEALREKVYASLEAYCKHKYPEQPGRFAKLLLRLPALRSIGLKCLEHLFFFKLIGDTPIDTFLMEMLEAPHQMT
Assay: Activity at RXRalpha by GAL4DNA cotransfection assay relative to 5-((3-(1-ethyl-4,4,6-trimethyl-2-oxo-1,2,3,4-tetrahydroquinolin-7-yl)-4-(trifluoromethoxy)phenyl)methylene)thiazolidine-2,4-dione
Parameters: concentration or dose not given beside the values
The following ranges of Activity define the classes used here: group 1: < 80%; group 2: ≥ 80% and < 90%; group 3: ≥ 90%

Below are worked cases with known answers.
| MOLECULE | TESTED ON | ASSIGNED LABEL |
| --- | --- | --- |
| CCN1C(=O)CC(C)(C)c2cc(C)c(-c3cc(C4CC4C(=O)O)ccc3OCC(F)(F)F)cc21 (racemic) | UniProtKB P19793 | group 2 |
| CCN1C(=O)CC(C)(C)c2cc(C)c(-c3cc([C@@H]4C[C@H]4C(=O)O)ccc3OC(F)(F)F)cc21 | UniProtKB P19793 | group 2 |

Please classify: CCN1C(=O)CC(C)(C)c2cc(C)c(-c3cc(CCCC(=O)O)ccc3OC(F)(F)F)cc21
group 1

Please classify: Cc1cc2c(cc1-c1cc(CCC(=O)O)ccc1OC(F)(F)F)N(CC(F)(F)F)C(=O)CC2(C)C
group 3

Please classify: CCN1C(=O)CC(C)(C)c2cc(C)c(-c3cc(/C=C/C(=O)O)ccc3OC(F)(F)F)cc21
group 3

Please classify: CCN1C(=O)CC(C)(C)c2cc(C)c(-c3cc(CC(C)C(=O)O)ccc3OC(F)(F)F)cc21 (centres undefined)
group 2

Please classify: CCN1C(=O)CC(C)(C)c2cc(C)c(-c3cc(C(C)CC(=O)O)ccc3OC(F)(F)F)cc21 (centres undefined)
group 3

Please classify: Cc1cc2c(cc1-c1cc([C@H]3C[C@@H]3C(=O)O)ccc1OC(F)(F)F)N(C(C)C)C(=O)CC2(C)C
group 1

Please classify: Cc1cc2c(cc1-c1cc(C3CC3C(=O)O)ccc1OC(F)(F)F)N(C(C)C)C(=O)CC2(C)C (racemic)
group 2

Please classify: COc1ccc(CCC(=O)O)cc1-c1cc2c(cc1C)C(C)(C)CC(=O)N2C(C)C
group 1
